Data origin, for the record: the antibiotic and cytotoxicity screens of Wong et al. (2023)

System: HepG2
Experiment Notes: cytotoxicity call (relative viability < 0.9)
Cond: 10 µM
Out of some 39,000 compounds screened, about 3,300 (8.5%) were called active. This excerpt belongs to a sample that is enriched for actives.
Valid outcomes are listed here; reply with one: active, inactive

Example entries begin here.
1) CCn1cc(C(=O)O)c(=O)c2ccc(C)nc21 = inactive
2) CC(C)NC(=O)Nc1ccc2c(c1)CC(=O)N([C@@H](C)CO)C[C@H](C)[C@@H](CN(C)Cc1ccc(Oc3ccccc3)cc1)O2 = inactive
3) C[C@@H]1CCCCO[C@@H](CN(C)C(=O)Nc2ccc(C(F)(F)F)cc2)[C@H](C)CN([C@@H](C)CO)C(=O)c2cc(NC(=O)NC3CCCCC3)ccc2O1 = inactive
4) C[C@H](CO)N1C[C@H](C)[C@@H](CN(C)S(=O)(=O)c2cccs2)Oc2ccc(NS(=O)(=O)c3ccc(F)cc3)cc2CC1=O = inactive
5) C[C@H]1CN([C@@H](C)CO)C(=O)Cc2cc(NC(=O)Nc3ccccc3)ccc2O[C@H]1CN(C)Cc1ccc(Oc2ccccc2)cc1 = active
6) CC(C)NC(=O)Nc1ccc2c(c1)CC(=O)N([C@@H](C)CO)C[C@H](C)[C@H](CN(C)Cc1ccc(Oc3ccccc3)cc1)O2 = inactive

Query string: Answer briefly: the call reported for `Cc1ccc2c(Br)cc(Br)c(OC(=O)c3ccccc3)c2n1` in this assay.
Result string: active

Query string: Answer briefly: the call reported for `CO[C@@H]1CN(C)C(=O)c2cc(NC(=O)C3CC3)ccc2OC[C@H](C)N(C(=O)C2CCOCC2)C[C@@H]1C` in this assay.
Result string: inactive
